Let's look at some molecules and their measured growth inhibition.
test.details: inhibition of 3D7 malaria parasite growth – strain 3D7 (AID 2306);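 also: 0% = DMSO wells and 100% = chloroquine plus artemisinin control wells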
condition.context: P. falciparum 3D7 erythrocytic growth, LDH absorbance, 72 h; at 2 µM; hits give high values
Activity calls are given as the source filed them. No rule for the calls is given here.

O=c1cc(NCCC(CNCc2ccc(Br)o2)NCc2cc(Br)cc(Br)c2)[nH]c2ccccc12 (stereo not given)    98% (active)

Value of growth inhibition reported for the molecule Clc1ccccc1CNc1noc(-c2sccc2Br)n1 is 97% (active)

growth inhibition recorded for this molecule, COc1cc2c(c(Cl)c1OC)CCN(Cc1ccccc1)CC2c1ccc(NC(=O)C(F)(F)F)cc1 (stereo not given) , is 85% (active)

====

target.system: Plasmodium falciparum protein kinase 6 (PK6, PF3D7_1337100) (UniProt Q8IDW1)
test.details: PfPK6 kinase inhibitors, biochemical, TCAMS library (AID 1159586)
condition.context: recombinant PfPK6, Kinase-Glo ATP depletion luminescence
Results with a measured potency or affinity are listed apart. Calls of active or inactive are those of the source. No rule for the calls is given here.
readout.name: outcome

The cases that follow already have their outcome on record.
COc1cc2c(cc1N(C(C)C)S(=O)(=O)c1sc3ccc(Cl)cc3c1C)CCNCC2    inactive
O=C(Nc1ccc(Cl)c(C(F)(F)F)c1)N[C@H]1CCN(CCCCCNC(=O)[C@@H]2C[C@H]2c2ccc(Cl)c(Cl)c2)C1    inactive
C=CCOc1ccc(CNC2CCN(Cc3ccccc3)CC2)cc1Br    inactive
CC(C)(C)c1ccc(NC(=O)c2ccc(CN3CCCN(Cc4ccsc4)CC3)cc2)cc1    inactive
COc1ccc(CCNC(=O)c2cc(C)ccc2O)cc1-c1ccc(C(C)(C)C)cc1    inactive
CC(C)C[C@@H](NC(=O)OC(C)(C)C)C(=O)Nc1ccc(Cc2ccc(NC(=O)[C@@H](CC(C)C)NC(=O)OC(C)(C)C)cc2)cc1    inactive
O=C(Nc1ccc(Cl)cc1)Nc1cccc(-c2cccc(-c3nc4ccccc4[nH]3)c2)c1    inactive
O=C(Cc1cccc(O)c1)NCC(Cc1ccc(O)cc1)c1ccccc1 (centres undefined)    inactive

In the following, a different compound is considered.
The compound listed as COC(=O)c1cccc(C#CCCOCCCCCCNC[C@H](O)c2cc(Cl)c(N)c(Cl)c2)c1 has a reported outcome of inactive

====

test.details: human hepatoma cell viability loss – ATP luminescence, cytotoxicity control for P. falciparum antimalarial project, primary screen (AID 2303);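 also: 0% = DMSO wells and 100% = digitonin-killed cells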
condition.context: HepG2 viability, 24-48 h, at 10 µM, hits give high values
readout.name: inhibition (%)
Number in %, nothing else.

Some entries whose results are on file:
COc1ccc(Nc2nc(N)c3cc(OC)c(OC)cc3n2)cc1OC    -4
CCc1ccccc1-c1csc(C(=O)NCC2CCN(Cc3ccc(C(C)(C)C)cc3)C2)c1 (configuration not stated)    25

Noted for CCOC(=O)c1ccc(NC(=O)Nc2cccc(-c3cccc(-c4nc5c(C)cccc5[nH]4)c3)c2)cc1 : its inhibition reads 37

inhibition recorded for this compound, CCCCCN1CCCCC(NS(=O)(=O)c2ccc(C(=O)Nc3cccc(C(F)(F)F)c3)cc2)C1 (configuration not stated) , is 14

Lab note: measured inhibition of O=C(Nc1ccc(OC2CCN(Cc3ccc(F)cc3)C2)c(Cl)c1)c1ccoc1 (configuration not stated) was 13

inhibition reading for O=S(=O)(c1ccc2cc[nH]c2c1)N1CCC[C@@H]1CCN1CCC(c2c[nH]c3cnccc23)CC1 : 13

====

A collection of compounds and their measured inhibition
test.details: human hepatoma cell viability loss – ATP luminescence, cytotoxicity control for P. falciparum antimalarial project, primary screen (AID 2303);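 also: 0% = DMSO wells and 100% = digitonin-killed cells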
condition.context: HepG2 viability, 24-48 h, at 10 µM, hits give high values
Form entry: value (%) — number only.

O=C(NCCN1CCOCC1)c1csc(C2CCCN(C(=O)c3ccc(O)c(-c4cc(Cl)cc(Cl)c4)c3)C2)n1 (stereo not given)    12

Next:
Form field inhibition, entry COc1cc2c(cc1C(F)(F)F)N(C(=O)Nc1cc(F)cc(-c3cncnc3)c1)CC2 : 15

====

test.details: antimalarial activity against Dd2 strain (AID 2302);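 also: 0% = DMSO untreated growth and 100% = chloroquine plus artemisinin killed control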
condition.context: P. falciparum Dd2 in RBCs, LDH growth readout, 72 h; at 2 µM; hits give high values
Assign True to entries whose growth inhibition meets or exceeds 60%; assign False to the rest.

O=C(Nc1cccc(CCNCc2ccccc2)c1)Nc1cccc2ccccc12    False

Exercise: Does the compound CC(=O)c1cccc(NC(=O)NC2CCN(c3ccnc(Nc4ccc(F)cc4)n3)C2)c1 (stereo not given) have recorded growth inhibition that is 60% or more?
Solution: True

Exercise: Does the reported growth inhibition for O=C(Nc1cccc(CN2CCN(C(=O)c3cccc(F)c3)CC2)c1)c1ccco1 fall at or above the 60% mark?
Solution: False

Exercise: Decide: growth inhibition of Cc1[nH]c(C)c(-c2ccc(OCc3ccccc3C(F)(F)F)nc2)c(=O)c1Br >= 60%?
Solution: True

====

We begin with a simple list: items and their reported inhibition.
target.system: L-lactate dehydrogenase (Plasmodium falciparum (isolate CDC / Honduras))
test.details: PfLDH activity inhibition – cell lysate, 3D7 strain, counter-screen for P. falciparum growth inhibition project (AID 2304);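 also: 0% = vehicle and 100% = reference inhibitor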
condition.context: P. falciparum 3D7 crude extract, LDH APAD/NBT absorbance; at 2 µM; hits give high values
Active and inactive are the calls of the source. No rule for the calls is given here.

Please review the following examples before continuing.
CC(C)CN(Cc1c(O)ccc2[nH]c(-c3ccc(F)cc3F)nc12)CC(C)C    -2% (inactive)
COc1ccc(CCN(C)CCCCc2ccc(NC(=O)c3cccc4c(=O)c5cc(F)ccc5sc34)cc2)cc1OC    0% (inactive)
O=c1cc(NCCCNCc2cc3ccccc3s2)[nH]c2ccccc12    -1% (inactive)
O=S(=O)(ON=C1CCc2ccccc21)c1ccc(Cl)cc1    3% (inactive)

Now, please, on to the next molecule.
Record COc1ccc(-c2ccc(NC(=O)c3ccc(Cl)cc3)cc2)cc1CN(C)CCN(C)C , field inhibition: -2% (inactive)

====

target.system: Plasmodium falciparum protein kinase 6 (PK6, PF3D7_1337100)
test.details: PfPK6 kinase inhibitors, biochemical, TCAMS library (AID 1159586)
condition.context: recombinant PfPK6, Kinase-Glo ATP depletion luminescence
Measured potencies and affinities stand elsewhere. The source made the active and inactive calls. How the calls were made is not given here.
readout.name: outcome

CCCCN(Cc1cc(Cl)c(OCC)c(OC)c1)c1ccc(C(O)(C(F)(F)F)C(F)(F)F)cc1    inactive
O=C(NCC1CCN(Cc2ccsc2)C1)c1cc(-c2cccc(C(F)(F)F)c2)cs1 (centres undefined)    inactive
CN(C)Cc1ccc(-c2cc3ncnc(Nc4ccc(OCc5cccc(F)c5)c(Cl)c4)c3s2)[nH]1    inactive
Fc1ccc2nc(-c3ccc(-c4ccc(CNCC5CCCO5)cc4)cc3)[nH]c2c1 (centres undefined)    inactive
COc1ccc2nccc([C@@H](O)CN3CCC(NCc4ccc5c(c4)oc(=S)n5C)CC3)c2c1    inactive
O=C(/C=C/c1ccc(Cl)c(Cl)c1)NCCCCCN1CCC(NC(=S)Nc2ccc(F)cc2F)CC1    inactive
COc1ccccc1N1CCN(CCCCNC(=O)c2ccc(NC(=O)c3ccc4ccccc4c3)cc2)CC1    inactive
CS(=O)(=O)c1ccccc1CNC(=O)c1ccc(-c2cccc(-c3nc4ccc(C(F)(F)F)cc4[nH]3)c2)cc1    inactive

// next entry
Kindly note the recorded outcome for Nc1nc2ncn(COC(COCc3ccccc3)COCc3ccccc3)c2c(=O)[nH]1 (tested in a mixture with another compound) , which is inactive

====

test.details: inhibition of 3D7 malaria parasite growth – strain 3D7 (AID 2306);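 also: 0% = DMSO wells and 100% = chloroquine plus artemisinin control wells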
condition.context: P. falciparum 3D7 erythrocytic growth, LDH absorbance, 72 h; at 2 µM; hits give high values
readout.name: growth inhibition (%)
State the answer as a number, implicitly in %.

CN1CCN(c2ccc3nc(-c4ccc(Cc5cc(Cl)ccc5OCc5ccccc5)o4)[nH]c3c2)CC1    102

Value of growth inhibition reported for the molecule COc1cc(CNC[C@@H](O)[C@H](Cc2ccccc2)NC(=O)c2cc(OC(C)C)cc(N3CCCS3(=O)=O)c2)cc(OC)c1 is 97

====

target.system: Calcium-dependent protein kinase 1 (Plasmodium falciparum (isolate 3D7)) (UniProt P62344)
Sequence (P62344 whole entry, looked up): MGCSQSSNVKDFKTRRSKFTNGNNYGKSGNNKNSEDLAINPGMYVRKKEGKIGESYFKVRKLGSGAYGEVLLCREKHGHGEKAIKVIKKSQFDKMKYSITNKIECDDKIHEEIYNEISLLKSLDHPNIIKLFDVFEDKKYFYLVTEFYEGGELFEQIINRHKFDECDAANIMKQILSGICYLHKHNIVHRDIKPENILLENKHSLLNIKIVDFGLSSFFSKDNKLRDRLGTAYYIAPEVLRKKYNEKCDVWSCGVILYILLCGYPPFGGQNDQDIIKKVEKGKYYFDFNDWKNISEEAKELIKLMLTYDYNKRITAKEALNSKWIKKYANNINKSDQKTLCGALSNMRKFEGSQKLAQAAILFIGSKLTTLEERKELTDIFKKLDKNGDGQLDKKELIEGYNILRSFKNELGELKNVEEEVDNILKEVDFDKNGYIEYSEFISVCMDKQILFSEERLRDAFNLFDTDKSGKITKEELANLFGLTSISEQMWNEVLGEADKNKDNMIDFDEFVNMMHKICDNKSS
test.details: PfCDPK1 kinase inhibitors, biochemical, TCAMS library (AID 1159585);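 also: inhibitors leave more ATP so luminescence rises with inhibition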
condition.context: recombinant PfCDPK1, Kinase-Glo ATP depletion luminescence
Results with a measured potency or affinity are listed apart. Active and inactive are the calls of the source. No cut-off is given here; in the data, nearly all actives have IC50 up to about 0.98 µM.
readout.name: outcome

Solved cases below.
O=C(Nc1ccc(C(=O)N2CCN(CCN3CCN(c4cccc(C(F)(F)F)c4)CC3)CC2)cc1)c1ccc(C(F)(F)F)cc1    inactive
CCCCCN1CCCN(Cc2cccc(NC(=O)c3cc4ccccc4s3)c2)CC1    inactive
CCc1ccccc1NC(=O)CN1CCN(c2ncnc3scc(-c4ccc(F)cc4)c23)CC1    inactive
FC(F)(F)c1ccc2nc(-c3ccc(-c4cccc(CNCCN5CCNCC5)c4)s3)[nH]c2c1    inactive
C(=NNc1ccnc2ccccc12)c1ccncc1    inactive
Cn1cc(-c2ccccc2C(=O)O)c(=O)c2cc(Cl)ccc21    inactive

// sample N#Cc1ccc(N(CCOc2ccc3c(c2)CCC(=O)N3)Cc2ccccc2C(F)(F)F)cc1C(F)(F)F , its outcome was inactive

The recorded outcome for entry CN1CCN(CCCN(Cc2cccc(-c3ccc(CNCCc4ccccc4)cc3)c2)C(=O)Nc2ccccc2)CC1 equals inactive

Documented outcome of Cc1cnn(-c2cccc(C(=O)NC3CCC(CCN4CCc5ccc(C#N)cc5CC4)CC3)c2)c1 (stereo not given) : inactive

Lab note: measured outcome of OC(CN1CCN(C2CCCCC2)CC1)Cn1c2ccccc2c2cc(Br)ccc21 (stereo not given) was inactive

Given item O=C(NCCN1CCCC1)c1ccc(-c2ccc(-c3nc4ccccc4[nH]3)s2)cc1 , the value recorded as its outcome is inactive

// outcome lookup, compound = NC(=O)CNC(=O)CCCN=C(N)N , result: inactive

Measured outcome of Cc1nn(-c2ccccc2)nc1C(=O)NC1CCN(CCNC(=O)c2ccc(Cl)c(Cl)c2)CC1 : inactive

Summary for this compound, Cc1cc(CN2CC[C@H](NC(=O)c3ccc(Cl)c(Cl)c3)C2)ccc1OC1CCN(C)C1 (stereo not given in full) : outcome is inactive

Just so you know, measured outcome for CCCCCCCN1CC[C@@H](CCC(O)c2ccnc3ccc(OC)cc23)[C@@H](CC)C1 (stereo not given in full) came out at inactive

Reported outcome for Cc1ccc2nc(C)cc(NN=Cc3cccc(Cl)c3)c2c1 was inactive
